TESTED_TARGET: hERG (KCNH2) K+ channel (Homo sapiens)
Sequence (Q12809 whole entry): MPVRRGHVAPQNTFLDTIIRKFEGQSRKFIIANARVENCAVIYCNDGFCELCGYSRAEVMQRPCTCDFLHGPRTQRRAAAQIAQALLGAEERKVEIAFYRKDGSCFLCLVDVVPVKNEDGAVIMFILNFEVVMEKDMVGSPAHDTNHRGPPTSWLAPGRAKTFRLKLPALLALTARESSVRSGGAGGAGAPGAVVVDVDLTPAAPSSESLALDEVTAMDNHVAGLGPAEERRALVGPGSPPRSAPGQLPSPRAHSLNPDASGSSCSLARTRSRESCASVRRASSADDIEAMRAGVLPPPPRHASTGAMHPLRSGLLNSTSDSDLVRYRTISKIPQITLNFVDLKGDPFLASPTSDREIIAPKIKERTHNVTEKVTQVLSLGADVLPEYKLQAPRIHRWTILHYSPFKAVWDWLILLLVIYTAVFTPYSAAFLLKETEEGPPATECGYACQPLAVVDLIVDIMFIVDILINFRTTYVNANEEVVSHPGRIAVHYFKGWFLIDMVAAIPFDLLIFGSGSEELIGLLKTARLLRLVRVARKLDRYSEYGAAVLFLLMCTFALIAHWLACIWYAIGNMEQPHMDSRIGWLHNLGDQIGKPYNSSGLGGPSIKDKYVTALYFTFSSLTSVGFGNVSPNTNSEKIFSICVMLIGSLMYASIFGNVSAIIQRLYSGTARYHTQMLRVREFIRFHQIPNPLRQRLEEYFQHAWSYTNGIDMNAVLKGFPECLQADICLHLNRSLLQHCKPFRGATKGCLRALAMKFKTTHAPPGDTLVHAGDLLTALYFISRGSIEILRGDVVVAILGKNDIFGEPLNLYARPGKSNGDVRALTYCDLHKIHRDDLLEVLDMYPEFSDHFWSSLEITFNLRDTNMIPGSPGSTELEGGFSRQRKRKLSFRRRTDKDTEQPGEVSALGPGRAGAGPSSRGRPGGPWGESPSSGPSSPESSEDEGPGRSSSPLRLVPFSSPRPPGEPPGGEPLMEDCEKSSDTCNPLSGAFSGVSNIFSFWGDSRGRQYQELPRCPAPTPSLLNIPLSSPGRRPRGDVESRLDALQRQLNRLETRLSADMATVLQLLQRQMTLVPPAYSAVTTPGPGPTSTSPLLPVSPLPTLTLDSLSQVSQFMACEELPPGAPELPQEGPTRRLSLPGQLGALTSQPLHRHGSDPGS
PROTOCOL_TEXT: Displacement of [3H]astemizole from human ERG K+ channel expressed in HEK293 cells at 10 uM by scintillation spectrophotometric analysis
CONDITIONS_USED: HEK293 cells expressing human ERG K+ channel, probe [3H]astemizole
ASSAY_ENDPOINT: inhibition at 10 µM (%)
Reply with just the number (in %).

Some molecules with known inhibition at 10 µM results, for comparison:
>  <SMILES_TEXT>
C(#Cc1cccc(C#Cc2ccccc2)n1)c1ccccc1

>  <inhibition at 10 µM, %>
-11

$$$$
>  <SMILES_TEXT>
C[n+]1c(C#CCOc2ccccc2Cl)cccc1C#CCOc1ccccc1Cl

>  <inhibition at 10 µM, %>
16

$$$$
>  <SMILES_TEXT>
Cc1ccc(Cc2ccnc(COc3ccc(C)cc3)c2)cc1

>  <inhibition at 10 µM, %>
-3

$$$$

Next molecule, inhibition at 10 µM to be filled in.
Input: Return inhibition at 10 µM (reported value) for this molecule: `c1ccc(CCc2cccc(CCc3ccccc3)c2)cc1`
Output: 8

Source: ChEMBL document CHEMBL2321724
